- Tested on: PC-3 prostate
- Assay Remarks: NCI-60 one-dose screen, 48 h (100 = growth as untreated, 0 = no growth, -100 = all killed)
- Assay Setup: 10 µM unless noted
- Description: Growth inhibition of the PC-3 human tumor cell line is measured as a screen for anti-cancer activity. Cells are grown in 96 well plates and exposed to the test compound for 48 hours. Compounds are tested at a single concentration, which is 10^-5 M for most compounds. The reported endpoint is percent growth (GI% or GIPRCNT), where numbers from 0 - 100% represent growth inhibition, and numbers from -100% - 0 represent cell death. For example, a value of 40 represents 60% growth inhibition. […]
About 83,000 compounds went through this panel and 20% of them were active in at least one assay; those are over-represented in the sample as a whole.
Classification field: enter true (1) for growth values not below 90%, false (0) for values below it.

Compound	Assigned Class
CCCCCCCC/C=C/CCCCCCCC1=NC(C)(C)CN1C(C)C	false (0)
Cc1ccccc1Nc1n[nH]c(Cc2ccccc2)n1	false (0)
CS(=O)(=O)c1ccc(C(=O)Nc2ccc(Cl)c(-c3ccccn3)c2)c(Cl)c1	false (0)
Cc1c(C(N)=O)sc2ncn(CC(=O)NN=C3CCCCC3)c(=O)c12	true (1)
CC(C)[C@@]12C[C@@H](OC(=O)C3CO3)[C@@](C)(O1)[C@@H]1CC[C@@H](C)[C@H]1[C@@H]2OC(=O)/C=C/c1ccccc1 (stereo not given in full)	false (0)
COc1cc2ncnc(Nc3ccc(S(=O)(=O)Nc4cc(C)on4)cc3)c2cc1OCCCN1CCN(c2ccc([N+](=O)[O-])cc2)CC1	true (1)
c1ccc2oc(-c3cnc4nonc4n3)cc2c1	true (1)
COc1ccc(NC(=O)Cn2c(=O)sc3c(-c4ccc(Cl)cc4)cc(-c4ccc(Cl)cc4)nc32)cc1	true (1)

====

- Tested on: IGROV1 ovarian
- Assay Remarks: NCI-60 one-dose screen, 48 h (100 = growth as untreated, 0 = no growth, -100 = all killed)
- Assay Setup: 10 µM unless noted
About 83,000 compounds went through this panel and 20% of them were active in at least one assay; those are over-represented in the sample as a whole.
Items are presented alongside their recorded growth.

Compound	Quantity Unit	growth
CC(C)(C)c1nn(-c2ccccc2)c2c1C(=O)CSC(c1ccc3c(c1)OCO3)N2 (centres undefined)	%	88.5
ClC1=NC(Cl)C(Cl)=N/C1=N\c1ncn[nH]1 (centres undefined)	%	-50.2
CC1OC(n2c3ccccc3c3c4c(c5c6ccccc6[nH]c5c32)C(=O)N(CCN[C@H]2CCC[C@@H]2N)C4=O)CC(O)C1O (some centres undefined)	%	36.4
O=C1OCC2=C1C(c1ccccc1)c1cc3c(cc1N2CCO)OCO3 (centres undefined)	%	39.5
C#CCO[C@H]1CC[C@H](OCC#C)[C@@H]2[C@H]1[C@H]1C[C@@H]3[C@@]4(C)CCC[C@@](C)(C(=O)OC)[C@@H]4CC[C@@]23C=C1C(C)C	%	0.137
COc1cc(C2CC(c3cccc(Nc4ccnc5cc(Cl)ccc45)c3)=NN2C=O)cc(OC)c1OC (centres undefined)	%	40.6
O=C1CCCN1C(O)CCN(Cc1ccccc1)Cc1ccc(Cl)cc1 (centres undefined)	%	100
O=C(Nc1ccccc1)c1cc2ccccc2s1	%	87.3
CC1(C)CC(=O)c2cc3c(N)c(C(=O)Nc4ccc(Cl)cc4)sc3nc2C1	%	111
COc1cccc(-c2nc3sccn3c2-c2ccnc(NCCN3CCCN(C)S3(=O)=O)n2)c1	%	72.7
O=C(NCCN1CCCCC1)n1cc(-c2ccncc2)c(-c2ccc(Cl)c(O)c2)n1	%	74
Cc1ccsc1C(=O)CC(=O)C(F)(F)C(F)(F)C(F)(F)F	%	114
CCCCOc1nc2ccccc2cc1/C=C/c1cc(/C=C/c2cc3ccccc3nc2OCCCC)n(-c2ccccc2)n1	%	97.9
COc1cc([N+](=O)[O-])cc(OC)c1OC	%	100
CC1OC(n2c3ccccc3c3c4c(c5c6ccccc6[nH]c5c32)C(=O)N(CCN2CCOCC2)C4=O)CC(O)C1O (centres undefined)	%	48.3
CCCNCCC(C)=O	%	118
O=C(O)c1ccccc1Oc1cc(-c2ccco2)nc(OCCN2CCOCC2)n1	%	103
COc1ccc(/C=C/C(=O)CCC(=O)O)cc1OC	%	108
CCC1=CC2CN(C1)Cc1c([nH]c3ccccc13)[C@@](C(=O)OC)(c1cc3c(cc1OC)N(C)[C@H]1[C@@](O)(C(=O)OC)[C@H](OC(C)=O)[C@]4(CC)C=CCN5CC[C@]31[C@@H]54)C2 (some centres undefined)	%	35.7
